assay: Stability of linkers L1-L4 conjugated to FGF21 (LC-MS); type: physicochemical; settings: +4° C., 168 hrs
Listing of recorded +(2) H2O by entry.
Give the quantity in %, number only.

1) L4-FGF21ΔH-A129C: Linker-4 conjugated to FGF21ΔH-A129C protein (Table 4; Table 5 row L4) (conjugate, UniProt Q9NSA1 29-209, looked up, variant H1* A129C, Linker-4 attached) Fibroblast growth factor 21: PIPDSSPLLQFGGQVRQRYLYTDDAQQTEAHLEIREDGTVGGAADQSPESLLQLKALKPGVIQILGVKTSRFLCQRPDGALYGSLHFDPEACSFRELLLEDGYNVYQSEAHGLPLHLPGNKSPHRDPCPRGPARFLPLPGLPPALPEPPGILAPQPPDVGSSDPLSMVGPSQGRSPSYAS = 6

Return reported +(2) H2O. Input molecule: L1-FGF21ΔH-A129C: Linker-1 conjugated to FGF21ΔH-A129C protein (Table 4; Table 5 row L1) (conjugate, UniProt Q9NSA1 29-209, looked up, variant H1* A129C, Linker-1 attached) Fibroblast growth factor 21: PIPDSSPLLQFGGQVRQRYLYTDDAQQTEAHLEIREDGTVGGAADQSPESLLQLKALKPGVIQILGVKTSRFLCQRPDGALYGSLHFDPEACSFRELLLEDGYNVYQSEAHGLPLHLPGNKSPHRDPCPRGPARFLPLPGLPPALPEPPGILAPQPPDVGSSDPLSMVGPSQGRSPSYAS
18

Return reported +(2) H2O. Input molecule: L3-FGF21ΔH-A129C: Linker-3 conjugated to FGF21ΔH-A129C protein (Table 4; Table 5 row L3) (conjugate, UniProt Q9NSA1 29-209, looked up, variant H1* A129C, Linker-3 attached) Fibroblast growth factor 21: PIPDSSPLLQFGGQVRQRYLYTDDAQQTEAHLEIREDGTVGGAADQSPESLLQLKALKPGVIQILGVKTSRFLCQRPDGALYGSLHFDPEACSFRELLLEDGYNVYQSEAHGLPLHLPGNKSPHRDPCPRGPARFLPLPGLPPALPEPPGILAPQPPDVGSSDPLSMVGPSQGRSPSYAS
8

Where do the numbers come from? From patent US8722622B2.
